# testedTarget: MAP kinase-activated protein kinase 2 (Homo sapiens, UniProt P49137)
# Sequence (P49137 whole entry): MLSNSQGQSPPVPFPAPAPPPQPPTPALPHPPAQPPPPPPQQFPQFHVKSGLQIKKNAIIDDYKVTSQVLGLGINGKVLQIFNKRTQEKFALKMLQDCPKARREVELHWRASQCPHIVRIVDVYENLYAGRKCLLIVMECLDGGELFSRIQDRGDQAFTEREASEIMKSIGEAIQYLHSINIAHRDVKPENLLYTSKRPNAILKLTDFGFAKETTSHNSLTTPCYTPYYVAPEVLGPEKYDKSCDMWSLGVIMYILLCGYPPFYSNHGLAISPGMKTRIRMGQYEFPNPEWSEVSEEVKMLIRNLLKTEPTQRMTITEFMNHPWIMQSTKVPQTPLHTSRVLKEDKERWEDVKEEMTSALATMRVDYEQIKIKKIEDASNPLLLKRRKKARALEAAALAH
# testProtocol: Inhibition of MK2 using Fluo-betaA-11A NeoMPS as substrate pre-incubated for 30 mins before substrate addition measured after 2 hrs by IMAP assay
What EC50 was measured for each of the following?
One number for each entry, in nM.

molecule: O=C(Nc1cc(-c2cc3c([nH]2)C2(CCCNC2)CNC3=O)ccn1)c1ccc2ccccc2c1 (single isomer, unassigned; stereoisomer 1)
quantity: EC50
readoutNumber: 2.5

Give measured EC50 for every item shown.
1. Cc1ccc(C(=O)Nc2cc(-c3cc4c([nH]3)C3(CCNCC3)CNC4=O)ccn2)cc1C
2. O=C(Nc1cc(-c2cc3c([nH]2)C2(CCNC2)CNC3=O)ccn1)c1ccc(F)cc1 (racemic)
3. O=C1NCC2(CCCNC2)c2[nH]c(-c3ccnc(NC(=O)c4cccc5ccccc45)c3)cc21 (racemic)
4. O=C(Nc1cc(-c2cc3c([nH]2)C2(CCCNC2)CNC3=O)ccn1)c1cccc(F)c1 (racemic)
5. O=C(Nc1cc(-c2cc3c([nH]2)C2(CCNCC2)CNC3=O)ccn1)c1ccncc1

1: 1; 2: 1.3; 3: 5.1; 4: 6.2; 5: 2.6

The molecule identified as Cc1ccc(C(=O)Nc2cc(-c3cc4c([nH]3)C3(CCCNC3)CNC4=O)ccn2)cc1C (stereo in doubt; 3dS1) registered its EC50 at 5.5

###

# System: PBMC
# testProtocol: Inhibition of LPS-induced TNFalpha production in human PBMC pre-incubated for 30 mins prior to LPS-induction measured after 4 hrs by ELISA
# Type: functional, cell-based
# conditionContext: Homo sapiens, PBMC
What pEC50 was measured for each of the following?
One number for each entry, as −log10 of the molar value.

A selection of reference data follows.
compound: O=C(Nc1cc(-c2cc3c([nH]2)C2(CCCNC2)CNC3=O)ccn1)c1ccccn1 (racemic)
pEC50: 6.89
//
compound: O=C(Nc1cc(-c2cc3c([nH]2)C2(CCNC2)CNC3=O)ccn1)c1cccc(F)c1 (racemic)
pEC50: 6.77
//
compound: O=C(Nc1cc(-c2cc3c([nH]2)C2(CCNCC2)CNC3=O)ccn1)c1ccc2ccccc2c1
pEC50: 6.64

Give measured pEC50 for every item shown.
1. O=C1NCC2(CCNCC2)c2[nH]c(-c3ccnc(NC(=O)c4cccc5ccccc45)c3)cc21
2. O=C(Nc1cc(-c2cc3c([nH]2)C2(CCCNC2)CNC3=O)ccn1)c1cc(F)cc(F)c1 (racemic)

[6.19, 6.85]

The compound identified as O=C(Nc1cc(-c2cc3c([nH]2)C2(CCCNC2)CNC3=O)ccn1)c1cccc(F)c1 (racemic) registered its pEC50 at 7.52

###

# testedTarget: MAP kinase-activated protein kinase 2 (Homo sapiens, UniProt P49137)
# testProtocol: Inhibition of MK2 using Fluo-betaA-11A NeoMPS as substrate pre-incubated for 30 mins before substrate addition measured after 2 hrs by IMAP assay
What log10 EC50 was measured for each of the following?
Record value = log10 of EC50 given in nM.

A selection of reference data follows.
compound: O=C(Nc1cc(-c2cc3c([nH]2)C2(CCCNC2)CNC3=O)ccn1)c1ccc(F)cc1 (stereo in doubt; 6dS1)
testedTarget: MAP kinase-activated protein kinase 2 (Homo sapiens, UniProt P49137)
log10 EC50: 0.38
--
compound: O=C(Nc1cc(-c2cc3c([nH]2)C2(CCNCC2)CNC3=O)ccn1)c1cccc(F)c1
testedTarget: MAP kinase-activated protein kinase 2 (Homo sapiens, UniProt P49137)
log10 EC50: 0.04
--
compound: O=C(Nc1cc(-c2cc3c([nH]2)C2(CCNCC2)CNC3=O)ccn1)c1cccc(OC(F)(F)F)c1
testedTarget: MAP kinase-activated protein kinase 2 (Homo sapiens, UniProt P49137)
log10 EC50: 0.18

Give measured log10 EC50 for every item shown.
1. O=C(Nc1cc(-c2cc3c([nH]2)C2(CCNCC2)CNC3=O)ccn1)c1ccccn1
2. O=C1NCC2(CCNCC2)c2[nH]c(-c3ccnc(NC(=O)c4cccc5ccccc45)c3)cc21
3. CN1CCC2(CC1)CNC(=O)c1cc(-c3ccnc(NC(=O)c4cccc(F)c4)c3)[nH]c12
4. Cc1ccc(C(=O)Nc2cc(-c3cc4c([nH]3)C3(CCNC3)CNC4=O)ccn2)cc1C (racemic)

1: 0.15; 2: -0.02; 3: 0.40; 4: -0.15

Test item O=C(Nc1cc(-c2cc3c([nH]2)C2(CCCNC2)CNC3=O)ccn1)c1ccc(F)cc1 (single isomer, unassigned; isomer 2) ; MAP kinase-activated protein kinase 2 (Homo sapiens, UniProt P49137); reported log10 EC50 was 1.49

###

# Test system: THP-1
# testProtocol: Inhibition of LPS-induced TNFalpha production in human THP1 cells pre-incubated for 30 mins prior to LPS-induction measured after 4 hrs by ELISA
# Format: functional, cell-based
# conditionContext: thp-1
pEC50: −log10 of the molar value.
Label scheme for pEC50: lower than 6 is f, 6 and above is t.

compound: O=C(Nc1cc(-c2cc3c([nH]2)C2(CCCNC2)CNC3=O)ccn1)c1ccc(F)cc1 (stereo in doubt; 6dS1)
testedTarget: THP-1
assignedClass: t
//
compound: Cc1ccc(C(=O)Nc2cc(-c3cc4c([nH]3)C3(CCCNC3)CNC4=O)ccn2)cc1C (stereo in doubt; 3dS1)
testedTarget: THP-1
assignedClass: t
//
compound: Cc1ccc(C(=O)Nc2cc(-c3cc4c([nH]3)C3(CCCNC3)CNC4=O)ccn2)cc1C (single isomer, unassigned; stereoisomer 2)
testedTarget: THP-1
assignedClass: f

Is reported pEC50 greater than or equal to 6 here: O=C(Nc1cc(-c2cc3c([nH]2)C2(CCCNC2)CNC3=O)ccn1)c1ccc(F)cc1 (single isomer, unassigned; isomer 2)
f

Is reported pEC50 greater than or equal to 6 here: O=C(Nc1cc(-c2cc3c([nH]2)C2(CCCNC2)CNC3=O)ccn1)c1ccc(F)cc1 (racemic)
t

Is reported pEC50 greater than or equal to 6 here: Cc1ccc(C(=O)Nc2cc(-c3cc4c([nH]3)C3(CCCNC3)CNC4=O)ccn2)cc1C (racemic)
t

###

# testProtocol: Permeability of the compound by PAMPA
# Format: ADME
# conditionContext: read-out: permeability
quantity: Papp (nm/s)
Give bare numbers, in nm/s.

Give measured Papp for every item shown.
1. O=C(Nc1cc(-c2cc3c([nH]2)C2(CCCNC2)CNC3=O)ccn1)c1cccc(F)c1 (racemic)
2. O=C(Nc1cc(-c2cc3c([nH]2)C2(CCCNC2)CNC3=O)ccn1)c1cc(F)cc(F)c1 (racemic)
3. O=C(Nc1cc(-c2cc3c([nH]2)C2(CCNC2)CNC3=O)ccn1)c1cccc(F)c1 (racemic)
4. O=C(Nc1cc(-c2cc3c([nH]2)C2(CCCNC2)CNC3=O)ccn1)c1ccccn1 (racemic)
5. O=C(Nc1cc(-c2cc3c([nH]2)C2(CCNCC2)CNC3=O)ccn1)c1cccc(F)c1
6. Cc1ccc(C(=O)Nc2cc(-c3cc4c([nH]3)C3(CCNC3)CNC4=O)ccn2)cc1C (racemic)
7. O=C1NCC2(CCCNC2)c2[nH]c(-c3ccnc(NC(=O)c4cccc5ccccc45)c3)cc21 (racemic)

1. 19
2. 63
3. 6
4. 2
5. 6
6. 2
7. 1

The molecule identified as Cc1ccc(C(=O)Nc2cc(-c3cc4c([nH]3)C3(CCCNC3)CNC4=O)ccn2)cc1C (single isomer, unassigned; stereoisomer 2) registered its Papp at 10

###

# testedTarget: MAP kinase-activated protein kinase 2 (Homo sapiens)
# testProtocol: Inhibition of MK2-mediated HSP27 phosphorylation in LPS-stimulated human THP1 cells pre-incubated for 60 mins prior to LPS-induction measured after 60 mins by multi-spot assay
# Type: cell-based, THP-1
quantity: EC50 (nM)
One number for each entry, in nM.

A selection of reference data follows.
compound: O=C1NCC2(CCCNC2)c2[nH]c(-c3ccnc(NC(=O)c4cccc5ccccc45)c3)cc21 (racemic)
EC50 (nM): 1100
//
compound: O=C1NCC2(CCNCC2)c2[nH]c(-c3ccnc(NC(=O)c4cccc5ccccc45)c3)cc21
EC50 (nM): 520
//
compound: Cc1ccc(C(=O)Nc2cc(-c3cc4c([nH]3)C3(CCNCC3)CNC4=O)ccn2)cc1C
EC50 (nM): 350
//
compound: O=C(Nc1cc(-c2cc3c([nH]2)C2(CCCNC2)CNC3=O)ccn1)c1ccc2ccccc2c1 (single isomer, unassigned; stereoisomer 1)
EC50 (nM): 530

Give measured EC50 for every item shown.
1. O=C(Nc1cc(-c2cc3c([nH]2)C2(CCNC2)CNC3=O)ccn1)c1cccc(F)c1 (racemic)
2. O=C(Nc1cc(-c2cc3c([nH]2)C2(CCCNC2)CNC3=O)ccn1)c1ccc(C(F)(F)F)cc1 (racemic)
3. O=C(Nc1cc(-c2cc3c([nH]2)C2(CCCNC2)CNC3=O)ccn1)c1cccc(OC(F)(F)F)c1 (racemic)
4. CN1CCC2(CC1)CNC(=O)c1cc(-c3ccnc(NC(=O)c4cccc(OC(F)(F)F)c4)c3)[nH]c12

480
1200
610
830
